Cited source: ChEMBL document CHEMBL4765301

Target: Serine/threonine-protein kinase TNNI3K (Homo sapiens, UniProt Q59H18)
Sequence (Q59H18 whole entry): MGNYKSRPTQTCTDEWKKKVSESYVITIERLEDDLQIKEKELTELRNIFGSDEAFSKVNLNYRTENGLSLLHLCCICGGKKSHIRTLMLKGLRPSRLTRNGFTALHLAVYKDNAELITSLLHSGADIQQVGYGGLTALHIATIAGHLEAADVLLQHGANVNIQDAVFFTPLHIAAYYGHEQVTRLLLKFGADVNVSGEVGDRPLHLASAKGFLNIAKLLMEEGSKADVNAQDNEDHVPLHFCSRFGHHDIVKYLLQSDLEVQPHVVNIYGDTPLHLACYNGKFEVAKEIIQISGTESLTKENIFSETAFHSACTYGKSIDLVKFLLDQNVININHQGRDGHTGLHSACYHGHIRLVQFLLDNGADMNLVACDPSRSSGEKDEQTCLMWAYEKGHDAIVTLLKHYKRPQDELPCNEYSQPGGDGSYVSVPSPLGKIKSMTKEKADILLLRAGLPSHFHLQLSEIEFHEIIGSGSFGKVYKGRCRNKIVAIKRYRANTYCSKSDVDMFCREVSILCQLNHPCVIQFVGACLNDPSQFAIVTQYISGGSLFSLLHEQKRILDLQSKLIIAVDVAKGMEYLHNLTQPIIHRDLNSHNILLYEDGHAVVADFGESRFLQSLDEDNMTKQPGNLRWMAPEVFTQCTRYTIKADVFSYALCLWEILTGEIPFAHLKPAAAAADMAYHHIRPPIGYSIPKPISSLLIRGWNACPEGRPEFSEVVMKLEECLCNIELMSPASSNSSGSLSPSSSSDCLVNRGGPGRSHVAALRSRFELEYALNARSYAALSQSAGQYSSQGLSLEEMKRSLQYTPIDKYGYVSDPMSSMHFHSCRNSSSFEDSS
hey, just use y if measured IC50 is less than 600 nM, otherwise n

Ask | Check if IC50 falls below 600 nM for CN(C)c1ccc(Nc2ncnc3sc4c(c23)CCNC4)cc1NC(=O)c1ccncc1 .
Reply | n

Ask | Please check: IC50 for CN(C)c1ccc(Nc2ncnc3sc4c(c23)CCNC4)cc1NC(=O)c1cccs1 , strictly under 600 nM or not?
Reply | n

Ask | # strict comparison: is reported IC50 < 600 nM? input = CCC(=O)Nc1cc(Nc2ncnc3sc4c(c23)CCN(CCCN2CCOCC2)C4)ccc1N(C)C
Reply | y

Ask | Hello, is IC50 of the following compound strictly smaller than 600 nM? CN1CCN(CCCN2CCc3c(sc4ncnc(Nc5ccc(N(C)C)c(NC(=O)c6cccs6)c5)c34)C2)CC1
Reply | y

Ask | Could you please tell me whether IC50 recorded for CN(C)CCCN1CCc2c(sc3ncnc(Nc4ccc(N(C)C)c(NC(=O)c5cccs5)c4)c23)C1 is less than 600 nM?
Reply | y

***
Ask | Lab note: confirm whether the reported IC50 for this compound is below 600 nM, equality not counting. compound: CN1CCc2c(sc3ncnc(Nc4ccc(N(C)C)c(NC(=O)c5ccco5)c4)c23)C1
Reply | y
